Where do these numbers come from? They come from patent US20240327497A1.

Would you mind telling me the reported kon of each entry?
# Assay system: canine FcRn (FcRn large subunit with canine beta-2-microglobulin) (canine)
# Measurement description: SPR pH 5.5, SASA-Fc captured on BSA, FcRn 100-800 nM

Respond only with kon recorded for canine IgGB Fc (CH2-CH3) A426Y with N-terminal SASA tag (Fc fusion, part only; not given: SASA tag, not shown: another chain or arm of the molecule; small tags and cut ends) Fc: APEMLGGPSVFIFPPKPKDTLLIARTPEVTCVVVDLDPEDPEVQISWFVDGKQMQTAKTQPREEQFNGTYRVVSVLPIGHQDWLKGKQFTCKVNNKALPSPIERTISKARGQAHQPSVYVLPPSREELSKNTVSLTCLIKDFFPPDIDVEWQSNGQQEPESKYRTTPPQLDEDGSYFLYSKLSVDKSRWQRGDTFICYVMHEALHNHYTQESLSHSPGK
262000 M⁻¹ s⁻¹

Respond only with kon recorded for canine IgGB Fc (CH2-CH3) N434W with N-terminal SASA tag (Fc fusion, part only; not given: SASA tag, not shown: another chain or arm of the molecule; small tags and cut ends) Fc: APEMLGGPSVFIFPPKPKDTLLIARTPEVTCVVVDLDPEDPEVQISWFVDGKQMQTAKTQPREEQFNGTYRVVSVLPIGHQDWLKGKQFTCKVNNKALPSPIERTISKARGQAHQPSVYVLPPSREELSKNTVSLTCLIKDFFPPDIDVEWQSNGQQEPESKYRTTPPQLDEDGSYFLYSKLSVDKSRWQRGDTFICAVMHEALHWHYTQESLSHSPGK
446000 M⁻¹ s⁻¹

Respond only with kon recorded for wild-type canine IgGB Fc (CH2-CH3) with N-terminal SASA tag (Fc fusion, part only; not given: SASA tag, not shown: another chain or arm of the molecule; small tags and cut ends) Fc: APEMLGGPSVFIFPPKPKDTLLIARTPEVTCVVVDLDPEDPEVQISWFVDGKQMQTAKTQPREEQFNGTYRVVSVLPIGHQDWLKGKQFTCKVNNKALPSPIERTISKARGQAHQPSVYVLPPSREELSKNTVSLTCLIKDFFPPDIDVEWQSNGQQEPESKYRTTPPQLDEDGSYFLYSKLSVDKSRWQRGDTFICAVMHEALHNHYTQESLSHSPGK
168000 M⁻¹ s⁻¹

Respond only with kon recorded for canine IgGB Fc (CH2-CH3) N434H with N-terminal SASA tag (Fc fusion, part only; not given: SASA tag, not shown: another chain or arm of the molecule; small tags and cut ends) Fc: APEMLGGPSVFIFPPKPKDTLLIARTPEVTCVVVDLDPEDPEVQISWFVDGKQMQTAKTQPREEQFNGTYRVVSVLPIGHQDWLKGKQFTCKVNNKALPSPIERTISKARGQAHQPSVYVLPPSREELSKNTVSLTCLIKDFFPPDIDVEWQSNGQQEPESKYRTTPPQLDEDGSYFLYSKLSVDKSRWQRGDTFICAVMHEALHHHYTQESLSHSPGK
411000 M⁻¹ s⁻¹

Respond only with kon recorded for canine IgGB Fc (CH2-CH3) L252Y with N-terminal SASA tag (Fc fusion, part only; not given: SASA tag, not shown: another chain or arm of the molecule; small tags and cut ends) Fc: APEMLGGPSVFIFPPKPKDTLYIARTPEVTCVVVDLDPEDPEVQISWFVDGKQMQTAKTQPREEQFNGTYRVVSVLPIGHQDWLKGKQFTCKVNNKALPSPIERTISKARGQAHQPSVYVLPPSREELSKNTVSLTCLIKDFFPPDIDVEWQSNGQQEPESKYRTTPPQLDEDGSYFLYSKLSVDKSRWQRGDTFICAVMHEALHNHYTQESLSHSPGK
275000 M⁻¹ s⁻¹
